Origin of the recorded values: PubChem BioAssay (EPA / NIEHS)

Assay: CCTE_Mundy_HCI_Cortical_Synap_Neur_Matur_NeuriteCount: CCTE's Synaptogenesis and Neurite Maturation Assay in rat cortical cells for Neurite Count, Mundy Lab (AID 2284222)
The source made the active and inactive calls. The calls were made as follows: active = hit-call score of the fitted dose curve at least 0.9, where 1 is the maximum; inactive = score below 0.9.
readout_name: AC50

compound: Cc1ccc(OP(=O)(Oc2ccc(C)cc2)Oc2ccc(C)cc2)cc1 (tested in a mixture with another compound)
AC50: inactive
--
compound: CC1(C)C(C=C(Cl)Cl)C1C(=O)O[C@H](C#N)c1cccc(Oc2ccccc2)c1 (stereo partly specified)
AC50: 12.3 µM (active)
--
compound: CCOP(=O)(OCC)SCSC(C)(C)C
AC50: inactive
--
compound: COP(=O)(OC)SCN1C(=O)c2ccccc2C1=O
AC50: inactive
--
compound: CCOP(=S)(OCC)SCS(=O)C(C)(C)C (stereo unspecified)
AC50: inactive
--
compound: CCC[CH2][Sn]([CH2]CCC)([CH2]CCC)[O][Sn]([CH2]CCC)([CH2]CCC)[CH2]CCC
AC50: inactive
--
compound: CCOP(=O)(Oc1cnc(C(C)(C)C)nc1)OC(C)C (stereo unspecified)
AC50: inactive
--
compound: O=[As]O
AC50: 4.43 µM (active)
--
compound: CC1(C)[C@@H](C=C(Cl)Cl)[C@@H]1C(=O)O[C@@H](C#N)c1ccc(F)c(Oc2ccccc2)c1
AC50: inactive
--
compound: CNC(=N[N+](=O)[O-])NCC1CCOC1 (stereo unspecified)
AC50: inactive

Fill in: AC50 of Cn1nc(C(F)(F)F)c(CS(=O)(=O)C2=NOC(C)(C)C2)c1OC(F)F is ___ inactive
